Task for the reader: assign each of the following molecules its reported MIC50.
Tested on: Clavispora lusitaniae
Experiment: Antifungal activity against Candida lusitaniae after 48 hrs by CLSI method
Type: functional
*1 amine or outer side, *2 acyl side, *3 side chain or, on linkers, in order; H or OH if unused. Where a SMILES comes first, the peptide text is derived from it. Bridges are numbered along the chain shown (N, C = ends). [ ]: non-standard residue; d: D form. The star is where a group is joined. hTyr(3S-OH,4S-OH,3'-OSO3H) = N[C@H](C(=O)O)[C@H](O)[C@@H](O)c1ccc(O)c(OS(=O)(=O)O)c1; Orn(4R-OH,5R-OH) = O=C([C@H](C[C@@H](O)[C@@H](O)N[*:3])N[*:1])[*:2]; Pro(3S-OH,4S-Me) = C[C@H]1CN[C@H](C(=O)O)[C@H]1O; X1 = CCCCCOc1ccc(-c2cc(-c3ccc(C(=O)*)cc3)no2)cc1; Gln(3R-OH) = NC(=O)C[C@@H](O)[C@H](N)C(=O)O; Hyp = O=C(O)[C@@H]1C[C@@H](O)CN1
Write the value in µg/mL as a bare number.

QUERY: For CC[C@@H]([C@H](C)O)n1ncn(-c2ccc(N3CCN(c4ccc(OC[C@@H]5CO[C@@](Cn6cncn6)(c6ccc(F)cc6F)C5)cc4)CC3)cc2)c1=O , what is its reported MIC50?
RESULT: 0.03

QUERY: For C[C@@H](c1ncncc1F)[C@](O)(Cn1cncn1)c1ccc(F)cc1F , what is its reported MIC50?
RESULT: 0.015

QUERY: For CCCCCOc1ccc(-c2cc(-c3ccc(C(=O)N[C@H]4C[C@@H](O)[C@@H](O)NC(=O)[C@@H]5[C@@H](O)[C@@H](C)CN5C(=O)[C@H]([C@H](O)CC(N)=O)NC(=O)[C@H]([C@H](O)[C@@H](O)c5ccc(O)c(OS(=O)(=O)O)c5)NC(=O)[C@@H]5C[C@@H](O)CN5C(=O)[C@H]([C@@H](C)O)NC4=O)cc3)no2)cc1 [MICAFUNGIN] (X1-[Orn(4R-OH,5R-OH)]T[Hyp][hTyr(3S-OH,4S-OH,3'-OSO3H)][Gln(3R-OH)][Pro(3S-OH,4S-Me)]; lactam 1-C) , what is its reported MIC50?
RESULT: 0.25

QUERY: For OC(Cn1cncn1)(Cn1cncn1)c1ccc(F)cc1F , what is its reported MIC50?
RESULT: 0.25

QUERY: For CC[C@H](C)C[C@H](C)CCCCCCCCC(=O)N[C@H]1C[C@@H](O)[C@@H](NCCN)NC(=O)[C@@H]2[C@@H](O)CCN2C(=O)[C@H]([C@H](O)CCN)NC(=O)[C@H]([C@H](O)[C@@H](O)c2ccc(O)cc2)NC(=O)[C@@H]2C[C@@H](O)CN2C(=O)[C@H]([C@@H](C)O)NC1=O , what is its reported MIC50?
RESULT: 2

* * *

System: Candida parapsilosis
Assay: Antifungal activity against Candida parapsilosis after 48 hrs by CLSI method
Type: functional
Conditions: Lodderomyces parapsilosis
MEASURE_NAME: MIC50 (µg/mL)
Write the value in µg/mL as a bare number.

QUERY: For OC(Cn1cncn1)(Cn1cncn1)c1ccc(F)cc1F , what is its reported MIC50?
RESULT: 1

QUERY: For CC[C@H](C)C[C@H](C)CCCCCCCCC(=O)N[C@H]1C[C@@H](O)[C@@H](NCCN)NC(=O)[C@@H]2[C@@H](O)CCN2C(=O)[C@H]([C@H](O)CCN)NC(=O)[C@H]([C@H](O)[C@@H](O)c2ccc(O)cc2)NC(=O)[C@@H]2C[C@@H](O)CN2C(=O)[C@H]([C@@H](C)O)NC1=O , what is its reported MIC50?
RESULT: 1

QUERY: For C[C@@H](c1ncncc1F)[C@](O)(Cn1cncn1)c1ccc(F)cc1F , what is its reported MIC50?
RESULT: 0.03

Source: ChEMBL document CHEMBL1275451
